These entries and their values trace back to patent US20230340147A1.

# measured on: T1, PSA(67-79)-G0F (human, also: Asn3 N-glycosylated with octasaccharide carrying alpha-1,6 core fucose (G0F))
# T1 construct: Synthetic glycopeptide (3.9 kDa as SPR analyte), made on Sieber Amide resin; For the ELISAs a biotinylated form was used (glutamic acid derivative with a PEG3-biotin side chain at the N-terminus); also called PSA(67-79)-GOF; glycopeptide of Formula Ib
# T1 peptide: IRN(G0F)KSVILLGRHS-NH2
# test summary: SPR, Biacore 8k, 37 C, antibody captured by anti-rabbit Fc, peptide as analyte, Langmuir fit
Ends that are not written are not given here. * marks the point of attachment. G0F = octasaccharide N-glycan with alpha-1,6 core fucose (Formula Ib, linkages Formula Ic), CC(=O)N[C@@H]1[C@@H](O)[C@H](O[C@@H]2O[C@H](CO)[C@@H](O[C@@H]3O[C@H](CO[C@H]4O[C@H](CO)[C@@H](O)[C@H](O)[C@@H]4O[C@@H]4O[C@H](CO)[C@@H](O)[C@H](O)[C@H]4NC(C)=O)[C@@H](O)[C@H](O[C@H]4O[C@H](CO)[C@@H](O)[C@H](O)[C@@H]4O[C@@H]4O[C@H](CO)[C@@H](O)[C@H](O)[C@H]4NC(C)=O)[C@@H]3O)[C@H](O)[C@H]2NC(C)=O)[C@@H](CO[C@@H]2O[C@@H](C)[C@@H](O)[C@@H](O)[C@@H]2O)O[C@H]1*
parameter measured: kon (M⁻¹ s⁻¹)
Give the quantity in M⁻¹ s⁻¹, number only.

// worked examples, kon included
binder: 2E9 (antibody, V domains shown, Rabbit monoclonal IgG (150 kDa); also called anti-1,6fucPSA antibody 2E9) VH: QSLEESGGDLVKPGASLTLTCTASGFSFSAGYDMCWVRQAPGKGLEWIACIYADGSGSTYYANWAKGRFTISLASSTTVTLQMTGLTAADTATYFCAREGADGPDYGYAAFSLWGPGTLVTVSS VL: DVVMTQTPASVEAAVGGTVTIKCQASQSISNYFSWYQQKPGQPPKLLIYKASTLASGVPSRFKGSGSGTEFTLTISDLECADAATYYCQSFYGSVTSDYGGFAFGGGTEVVVK
kon, M⁻¹ s⁻¹: 1.75e+06
//
binder: 3B10 (antibody, V domains shown, Rabbit monoclonal IgG (150 kDa); also called anti-1,6fucPSA antibody 3B10) VH: QSLEESGGGLVKPGGTLTLTCKASGFSFSSGYDMCWVRQAPGKGLEWIACIYADGSDNTYYASWAKGRFTISKTSSTTVTLQMTRLTAADTATYFCAREGADNPNYGYAALRLWGPGTLVTVSS VL: DIVMTQTPASVEAPVGGTVTIKCQATQSISSYLSWYQQKPGQPPKLLIYKTSTLASGVPSRFKGSGSGTEFTLTISDLECANAATYYCQSYYGSISSDYGGFAFGGGTEVVVK
kon, M⁻¹ s⁻¹: 1.14e+06
//
binder: 2C11 (antibody, V domains shown, Rabbit monoclonal IgG (150 kDa); also called anti-1,6fucPSA antibody 2C11) VH: QSLEESGGGLVKPGGTLTLTCKASGFSFGPGYDMCWVRQAPGKGLEWIACIYADGSDNTYYASWARGRFTISKTSSTTVTLQMTRLTAADTATYFCAREGADNPNYGYAALRLWGPGTLVTVSS VL: DIVMTQTPASVEAPVGGTVTIKCQASESISSYLAWYQQKPGQPPKLLIYKTSTLASGVPSRFKGSGSGTEFTLTISDLECANAATYYCQSFYGSVSSDYGGFAFGGGTEVVVK
kon, M⁻¹ s⁻¹: 779000

Now for the binder whose kon we want.
// 2H9 (antibody, V domains shown, Rabbit monoclonal IgG (150 kDa); also called anti-1,6fucPSA antibody 2H9) VH: QSLEESGGDLVKPGASLTLTCTASGFSFSSGYDMCWVRQAPGKGPEWIACIYADGSGSTYYASWAKGRFTISMTSSTTVTLQMTRLTAADTATYFCAREGADDPNYGYAALRLWGPGTLVTVSS VL: DIVMTQTPASVEAAVGGTVTIKCQASQSISNYLAWYQQKPGQPPKLLIYKTSTLASGVPSRFKGSGSGTEFTLTISDLECADAATYYCQSFYGSVSSDYGGFAFGGGTEVVVK : kon value = 578000
